These measurements were taken from patent US20070155746A1.

Catalogue of pIC50 values
Subject of test: UniProt P35968
pIC50: −log10 of the molar value.
Measured quantity: pIC50

Molecular string: CCOc1cc(OCC)cc(C(=O)Nc2cccc(Oc3cc(-c4nc(C(F)(F)F)c[nH]4)ncn3)c2)c1
Reported: ≥ 5.00

Molecular string: Cn1cc(-c2cc(Oc3cccc(NC(=O)c4cccc(-n5cnnc5)c4)c3)ccn2)cn1
Reported: ≥ 5.00

Molecular string: Cn1cc(-c2cc(Oc3cccc(NC(=O)c4cccc(-c5ccccn5)c4)c3)ccn2)cn1
Reported: < 5.00

Molecular string: Cn1cc(-c2cc(Oc3cccc(NC(=O)c4ccc5c(c4)C(=O)OC5=O)c3)ccn2)cn1
Reported: < 5.00

Molecular string: Cn1cc(-c2cc(Oc3cccc(NC(=O)c4ccc5c(c4)OCO5)c3)ccn2)cn1
Reported: < 5.00

Molecular string: Cn1cc(-c2cc(Oc3cccc(NC(=O)c4cccc(C#N)c4)c3)ccn2)cn1
Reported: < 5.00

Molecular string: CCOc1cc(C(=O)Nc2cccc(Oc3ccnc(C(=O)NC)c3)c2)cc(OCC)c1OCC
Reported: ≥ 5.00

Molecular string: CCCOc1cccc(C(=O)Nc2cccc(Oc3ccnc(-c4cnn(C)c4)c3)c2)c1
Reported: < 5.00

Molecular string: Cn1cc(-c2cc(Oc3cccc(NC(=O)c4ccc5c(c4)CCO5)c3)ccn2)cn1
Reported: < 5.00

Molecular string: Cn1cc(-c2cc(Oc3cccc(NC(=O)c4ccc5[nH]nnc5c4)c3)ccn2)cn1
Reported: ≥ 5.00

* * *

pIC50: −log10 of the molar value.
Reported pIC50 values, VEGFR2 kinase (Homo sapiens, UniProt P35968).

Compound: CCOc1cc(OCC)cc(C(=O)Nc2cccc(Oc3cc(-c4cnn(C)c4)ncn3)c2)c1 [Example 24]
pIC50: < 5.00
--
Compound: Cn1cc(-c2cc(Oc3cccc(NC(=O)c4cc(OC(F)(F)F)cc(OC(F)(F)F)c4)c3)ccn2)cn1 [Example 41]
pIC50: < 5.00
--
Compound: Cn1cc(-c2cc(Oc3cccc(NC(=O)c4cccc(-n5cccc5)c4)c3)ccn2)cn1 [Example 58]
pIC50: < 5.00
--
Compound: Cn1cc(-c2cc(Oc3cccc(NC(=O)c4cccc(-c5ccncc5)c4)c3)ccn2)cn1 [Example 34]
pIC50: < 5.00
--
Compound: Cn1cc(-c2cc(Oc3cccc(NC(=O)c4cccc(-n5ccnc5)c4)c3)ccn2)cn1 [Example 37]
pIC50: < 5.00
--
Compound: Cn1cc(-c2cc(Oc3cccc(NC(=O)c4ccc5occc5c4)c3)ccn2)cn1 [Example 66]
pIC50: < 5.00
--
Compound: Cn1cc(-c2cc(Oc3cccc(NC(=O)c4ccccc4-n4ccnc4)c3)ccn2)cn1 [Example 36]
pIC50: ≥ 5.00
--
Compound: Cn1cc(-c2cc(Oc3cccc(NC(=O)c4ccc(Oc5ccccc5)cc4)c3)ccn2)cn1 [Example 56]
pIC50: ≥ 5.00
--
Compound: CNC(=O)c1cc(Oc2cccc(NC(=O)c3ccc(OC)c(OC4CCCC4)c3)c2)ccn1 [Example 15]
pIC50: ≥ 5.00
--
Compound: Cn1cc(-c2cc(Oc3cccc(NC(=O)c4ccc(Cl)c(C(F)(F)F)c4)c3)ncn2)cn1 [Example 25]
pIC50: < 5.00
--
Compound: O=C(Nc1cccc(Oc2ccnc(-c3nnco3)c2)c1)c1cccc(N2CCCCC2)c1 [Example 11]
pIC50: ≥ 5.00
--
Compound: Cn1cc(-c2cc(Oc3cccc(NC(=O)c4cccc(C(=O)c5ccccc5)c4)c3)ccn2)cn1 [Example 50]
pIC50: ≥ 5.00
--
Compound: Cn1cc(-c2cc(Oc3cccc(NC(=O)c4ccc(Cl)c(C(F)(F)F)c4)c3)ccn2)cn1 [Example 21]
pIC50: < 5.00
